assay system: CB2R-H95^2.65A (Homo sapiens, UniProt P34972, H95A)
Sequence (P34972 whole entry H95A): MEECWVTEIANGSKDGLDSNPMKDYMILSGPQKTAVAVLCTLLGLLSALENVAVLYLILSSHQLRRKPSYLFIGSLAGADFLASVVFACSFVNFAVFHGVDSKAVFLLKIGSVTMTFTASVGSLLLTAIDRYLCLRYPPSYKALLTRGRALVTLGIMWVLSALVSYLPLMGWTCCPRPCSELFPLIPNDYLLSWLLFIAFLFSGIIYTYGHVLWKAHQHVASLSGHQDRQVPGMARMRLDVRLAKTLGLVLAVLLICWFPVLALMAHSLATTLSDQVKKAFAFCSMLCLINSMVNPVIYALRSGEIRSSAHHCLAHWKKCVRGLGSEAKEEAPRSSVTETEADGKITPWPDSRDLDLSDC
experiment: [35S]GTPγS assay, CB2R H95A mutant
experimental setup: H95A mutant; <5 when curve fit not finished

- smiles structure: "CC(C)CN1C(=O)CN(Cc2ccc(-c3ccc(F)c(CNC4CCOCC4)n3)cc2)C1=O"
  EC50: "> 10 µM"

----------
assay system: hCB1R WT (Homo sapiens)
Sequence (P21554 whole entry): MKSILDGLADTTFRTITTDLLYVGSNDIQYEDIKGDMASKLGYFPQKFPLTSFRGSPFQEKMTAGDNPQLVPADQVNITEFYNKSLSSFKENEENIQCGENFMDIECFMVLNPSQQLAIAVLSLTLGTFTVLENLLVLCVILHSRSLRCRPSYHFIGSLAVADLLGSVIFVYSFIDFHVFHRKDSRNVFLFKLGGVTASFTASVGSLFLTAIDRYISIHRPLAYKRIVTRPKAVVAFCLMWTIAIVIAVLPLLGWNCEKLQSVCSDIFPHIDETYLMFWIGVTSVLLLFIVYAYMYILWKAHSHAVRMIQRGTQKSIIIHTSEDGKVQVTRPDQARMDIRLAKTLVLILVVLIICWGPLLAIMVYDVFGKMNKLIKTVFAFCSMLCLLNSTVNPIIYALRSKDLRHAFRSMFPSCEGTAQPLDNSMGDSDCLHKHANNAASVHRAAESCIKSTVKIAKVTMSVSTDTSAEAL
experiment: [35S]GTPγS G protein activation assay, CB1R WT
Type: biochemical
experimental setup: CB1R WT; 10 µM agonist
# Agonist-mediated activation per record follows
measurement name: Agonist-mediated activation (fold over its basal)

- smiles structure: "CCCCC/C=C\\C/C=C\\C/C=C\\C/C=C\\CCCC(=O)OC(CO)CO"
  measurement name: "Agonist-mediated activation"
  observed measurement: 1.3
- smiles structure: "CC(C)CN1C(=O)CN(Cc2ccc(-c3ccc(F)c(CNC4CCOCC4)n3)cc2)C1=O"
  measurement name: "Agonist-mediated activation"
  observed measurement: 1.0
- smiles structure: "CCCCCCC(C)(C)c1cc(OC)c([C@@H]2C=C(CO)[C@@H]3C[C@H]2C3(C)C)c(OC)c1"
  measurement name: "Agonist-mediated activation"
  observed measurement: 0.8
- smiles structure: "CC(C)(C)[C@@H](CO)NC(=O)c1nn(-c2c[n+]([O-])ccn2)c2c1C[C@@H]1C[C@H]21"
  measurement name: "Agonist-mediated activation"
  observed measurement: 1.0

Attribution: paper PMC10017709
